test system: MS2 coat protein; experiment: apparent KD of MS2 coat protein; higher = weaker reporter binding; details: Eterna round: R107; input ligand: arginine 13.2 mM
Record label 1 whenever apparent KD of MS2 coat protein is at 30 nM or higher; record label 0 when lower.

input-sequence: GCUACAUGAGGAUCACCCAUGUAUGCGAGCCGAGGACCGGUACGGCCGCCACUCGCUUAACAUGAGGAUCACCCAUGUUGCUCGC [SSTA DOUBLE!!! :-D #18]
cat: label 0
--
input-sequence: CGGUCGGUCGGCCGGUGAUUAUGGGAUGAAGGAGCGUGGGAAGCUACAGGUAGGUCGCAUCCGAAAGAUGAGGAUCACCCAUCUU [SSArg A #24Alt-Ms2 Mod]
cat: label 0
--
input-sequence: ACUCGGUGUUUGUUGCUCCGAGUACGUGAUACCAGUUAAUUUUAUGGCCCUUGGCAGCAUGGGACAUGAGGAUCACCCAUGUUUA [#04 SameState-TheophyllineA]
cat: label 1
--
input-sequence: ACAUGAGGAUCACCCAUGUGCCGUCUUGAUACCAGACGCGAAGUAGUCCCUUGGCAGCAACUACGUGACGGUCGCGCAUGUGUAG [bcxmullin]
cat: label 0
--
input-sequence: AUGCAACAUGAGGAUCACCCAUGUGGUGAUACCAGUCGACAAGUAGACCCUUGGCAGCACAGCCGAUAUCGAGAGAGAUUUUUGG [theeternabot_sameState_MS2_Theo_A_23]
cat: label 1
--
input-sequence: AUCGUACCUGGUGAUACCAGCAAUUGCUCGUGACAUGAGGAUCACCCAUGUGGCCAGUGAUGCCCUUGGCAGCAUGGUCGGUGCA [Same State - Theophylline B (Freestyle 24)]
cat: label 1
--
input-sequence: GUAUAUUGAAAACAAUAUACAGUGGGUGAACGAGGACCGGUACGGCCGCCACUCGGACAUGAGGAUCACCCAUGUCCAUGUGAAA [AstrosExyTryA#8]
cat: label 0
--
input-sequence: AAGAGUUGACAAAAGUCAGCUCAAACCGAAGGAGCGGGAGAAAUCCCAGGUAGGUCGCGGUUACAUGAGGAUCACCCAUGUUCCU [ArgAS 6 #BothOrNeither #OpenEnded]
cat: label 1
--
input-sequence: AACCAUCUCGGCGAUACCAGUGCCUACGAGUACAUGAGGAUCACCCAUGUAGGUGACCGACACCCUUGGCAGCGCGAUUGAGUCA [theeternabot_sameState_MS2_Theo_B_45]
cat: label 1
--
input-sequence: AAUAACAUGAGGAUCACCCAUGUAAAAGAUACCAGAGUGAUGAUCCUCCCUUGGCAGCUUAAUAACGCUAUUGAUUACAAUAGCG [Mat - Same State Theophlline A - Mod of Eli - D6]
cat: label 1
--
input-sequence: GGUGGCUGGAUCGAUACCAGCCACCACCGAUAGACCACAUGAGGAUCACCCAUGUUGGGUGGCCCUUGGCAGCGGUCCAGCUGCC [#1 Same State - Theophylline B Attempt #5 (HarryS)]
cat: label 1
--
input-sequence: GUUGUAUACUCGGCCGCCACUGAGAGAGUCAUGUAAACAUGAGGAUCACCCAUGUAAUAUAUAUACAGGACCGGGAGUGUGGUAA [4.G]
cat: label 0
--
input-sequence: ACAUGAGGAUCACCCAUGUACAUGAGGGAAGGAGCGGUACAUGAGCCAGGUAGGUCGCCCAUGAGCAUCAGCCAUGUACAUCAGC [vv,mmullin]
cat: label 1
--
input-sequence: GCUUGGGUGGCACAGCACUGGCAGUGCGAUACCAGCACGGUAACGUGCCCUUGGCAGCGCACAUGAGGAUCACCCAUGUGGUGCG [#1 Exclusion - Theophylline A Attempt #26 (HarryS)]
cat: label 0
--
input-sequence: AACUGGGUUCGUGAUACCAGCUCACACAUGAGGAUCACCCAUGUAGUGGGUAAAAUGUGGAGCCCUUGGCAGCACUGUGACCACG [Esria]
cat: label 0
--
input-sequence: AGCUCGCGAAAGCGAGCAACAUGAUCCGAAGGAGCGCGCGAAAGCGCAGGUAGGUCGCGGACAUGAGGAUCACCCAUGUCUCCUU [MAT - Exclusion Arginine A - Mod of Eli - D14]
cat: label 1
--
input-sequence: AUAUUAAUCGGAAGGAGCGGUACAUGAGGAUCACCCAUGUGCUAAGCUAGCAGAUCCCGUUACCAGGUAGGUCGCCGAGUUAUGA [Titeonra]
cat: label 1
--
input-sequence: GGCCCUGCGAGCGCUCGCAGGGCCGCGGAUACCAGCGAGGUCCAUCGCCCUUGGCAGCCGAACAUGAGGAUCACCCAUGUCGGUC [#1 Same State - Theophylline A Attempt #11 (HarryS)]
cat: label 0
